Source of measurements: patent US12649778

target: Peptide 1593 (…) (Mycobacterium tuberculosis); test: ELISA, NNK clone supernatant on coated peptide (22 hits)
Each entry below lists one item and its recorded ratio (OD450 to WT OD450) value.

1. 65D3 chimeric Fab, NNK library H25 mutant K to R (VH K63R) (Fab, V domains shown) VH: QSLEESGGRLVTPGGSLTLTCTVSGFSLSTHDISWVRQAPGKGLEWIGVIARRGSTYYASWARGRFTISKTSTTVDLKITSPTIEDTATYFCAREEFDFWGQGTLVTVSS VL: AVLTQTASPVSAAVGGTVTISCQSSQSVYNNKELSWFQQKPGQPPKLLISYASTLASGVPSRFKGSGSGTQFTLTISDLECDDAATYYCLGGYASTIDMWAFGGGTEVVVK | 1.4 fold of WT

Output ratio (OD450 to WT OD450) of 65D3 chimeric Fab, NNK library L2 mutant S to M (VL S24M) (Fab, V domains shown) VH: QSLEESGGRLVTPGGSLTLTCTVSGFSLSTHDISWVRQAPGKGLEWIGVIARRGSTYYASWAKGRFTISKTSTTVDLKITSPTIEDTATYFCAREEFDFWGQGTLVTVSS VL: AVLTQTASPVSAAVGGTVTISCQMSQSVYNNKELSWFQQKPGQPPKLLISYASTLASGVPSRFKGSGSGTQFTLTISDLECDDAATYYCLGGYASTIDMWAFGGGTEVVVK 1.31 fold of WT
